# Test system: H37Rv strain of M. tuberculosis
# PROCEDURE_SUMMARY: Alamar Blue Susceptibility Test (MABA)
# Type: cell-based
# APPLIED_CONDITIONS: Mycobacterium tuberculosis; H37Rv strain of M. tuberculosis; Alamar Blue; read-out: MABA (TB growth inhibition, colourimetric assay)
Structures can show the parent of a compound that is named as a salt.
REPORTED_ENDPOINT: MIC

What reported MIC corresponds to c1ccc(CNc2nc(N3CCC(c4ccccc4)CC3)nc3ccccc23)cc1 [Compound 132, hydrochloride] on H37Rv strain of M. tuberculosis? < 10 µM

Notebook entry, H37Rv strain of M. tuberculosis assay: MIC of FC1(F)CCN(c2nc(NCc3ccc(C(F)(F)F)o3)c3ccccc3n2)CC1 [Compound 161, hydrochloride] = ? 10 to 50 µM

For the record `CC(C)(C)OC(=O)N1CCCN(c2nc(NCc3ccccc3)c3ccccc3n2)CC1` , what value of MIC is listed for H37Rv strain of M. tuberculosis? 10 to 50 µM

Report MIC for Fc1ccc(CNc2nc(N3CCCCC3)c3ccccc3n2)cc1 [Compound 111, hydrochloride] tested on H37Rv strain of M. tuberculosis. 10 to 50 µM

* * *

# Test system: H37Rv strain of M. tuberculosis
# PROCEDURE_SUMMARY: Alamar Blue Susceptibility Test (MABA)
# Type: cell-based
# APPLIED_CONDITIONS: Mycobacterium tuberculosis; H37Rv strain of M. tuberculosis; Alamar Blue; read-out: MABA (TB growth inhibition, colourimetric assay)
Counter-ions that a name gives are not always drawn.
REPORTED_ENDPOINT: MIC

Return reported MIC; argument: `COCCNc1nc(NCc2ccc(F)cc2)c2ccccc2n1` 50 to 128 µM

Would you kindly share the measured MIC for Fc1ccc(CNc2nc(N3CCCCC3)nc3ccccc23)cc1F [Compound 116, hydrochloride] ? < 10 µM

What does the record list as MIC for `Fc1ccc(CNc2nc(N3CCCCC3)nc3cc(F)ccc23)cc1` ? < 10 µM

Given `Fc1ccc(CNc2nc(N3CCN(Cc4ccccc4)CC3)nc3ccccc23)cc1` , state its recorded MIC. 10 to 50 µM

I would be grateful if you could share the reported MIC for c1ccc(Nc2nc(N3CCCCC3)nc3ccccc23)cc1 [Compound 72, hydrochloride] . 50 to 128 µM

Could you tell me which MIC is on file for `CS(=O)(=O)c1ccc(CNc2nc(N3CCCCC3)nc3ccccc23)cc1` ? 10 to 50 µM

Would you mind telling me what MIC value was observed for `c1ccc(N2CCN(c3nc(N4CCCCC4)nc4ccccc34)CC2)cc1` ? 50 to 128 µM

May I ask what MIC has been recorded for `CC(C)(C)C(=O)N1CCN(c2nc(NCc3ccccc3)c3ccccc3n2)CC1` ? 10 to 50 µM

Consider the compound shown here: `Fc1cccc(CNc2nc(N3CCCCC3)nc3ccccc23)c1` What is its recorded MIC? < 10 µM

* * *

# System: H37Rv strain of M. tuberculosis
# PROCEDURE_SUMMARY: Alamar Blue Susceptibility Test (MABA)
# Assay type: cell-based
# APPLIED_CONDITIONS: Mycobacterium tuberculosis; H37Rv strain of M. tuberculosis; Alamar Blue; read-out: MABA (TB growth inhibition, colourimetric assay)
Counter-ions that a name gives are not always drawn.
Assignment: determine reported MIC for the given molecules.

Given CC(Nc1nc(N2CCCC2)nc2ccccc12)c1ccccc1 (stereo not drawn) , state its recorded MIC. 10 to 50 µM

Requested read-out: MIC. Entry: `c1ccc2c(c1)CCN(c1nc(N3CCCC3)nc3ccccc13)C2` 10 to 50 µM

So what's the measured MIC for this one? `Cc1ccc(CNc2nc(N3CCCCC3)nc3ccccc23)o1` < 10 µM

Would you mind telling me what MIC value was observed for `FC1(F)CCN(c2nc(NCc3ccc(C(F)(F)F)cc3)nc3ccccc23)CC1` ? < 10 µM

// MIC lookup, key: `C[C@@H](Nc1nc(N2CCCCC2)nc2ccccc12)c1ccc(C(F)(F)F)cc1` < 10 µM

What value of MIC has been reported for the following molecule? `OC[C@@H]1CCCN1c1nc(NCc2ccccc2)c2ccccc2n1` 50 to 128 µM

Look up MIC for this molecule: FC(F)(F)c1ccc(CNc2nc(N3CCCCC3)c3ccccc3n2)cc1 [Compound 109, hydrochloride] 10 to 50 µM

Which MIC is reported for this molecule? `Fc1ccc(CNc2nc(N3CCCCC3)nc3ccccc23)cc1` < 10 µM

Requested read-out: MIC. Entry: `c1ccc(CNc2cc(N3CCCCC3)nc3ccccc23)cc1` < 10 µM

* * *

# Test system: H37Rv strain of M. tuberculosis
# PROCEDURE_SUMMARY: Alamar Blue Susceptibility Test (MABA)
# Format: cell-based
# APPLIED_CONDITIONS: H37Rv strain of M. tuberculosis; Alamar Blue
REPORTED_ENDPOINT: MABA (TB growth inhibition, colourimetric assay)

For orientation, consider the following solved cases.
May I ask what MABA (TB growth inhibition, colourimetric assay) has been recorded for c1ccc2c(NC3C4CC5CC(C4)CC3C5)nc(N3CCCCC3)nc2c1 (stereo not shown) ? +++ (10-50 μM=+++)

MABA (TB growth inhibition, colourimetric assay) for `c1ccc2c(NC34CC5CC(CC(C5)C3)C4)nc(N3CCCCC3)nc2c1` ? +++ (10-50 μM=+++)

Entry under review: Nc1nc(N)c2ccccc2n1 [Comparative compound 2, Quinazoline-2,4-diamine, reference compound] . Reported MABA (TB growth inhibition, colourimetric assay)? −

Given Nc1nc(N2CCCCC2)nc2ccccc12 [compound 1, 2-(Piperidin-1-yl)quinazolin-4-amine, reference compound] , state its recorded MABA (TB growth inhibition, colourimetric assay). −

Further cases:
# query: MABA (TB growth inhibition, colourimetric assay) of entry c1ccc2c(NC3C4CC5CC(C4)CC3C5)nc(N3CCOCC3)nc2c1 (stereo not shown) [Compound 16] +++ (10-50 μM=+++)

What value of MABA (TB growth inhibition, colourimetric assay) has been reported for the following compound? c1ccc2c(NC3C4CC5CC(C4)CC3C5)nc(N3CCOCC3)nc2c1 (stereo not shown) [Compound 19] +++ (10-50 μM=+++)

Item under review: `c1ccc2c(NC34CC5CC(CC(C5)C3)C4)nc(N3CCOCC3)nc2c1` . Reported MABA (TB growth inhibition, colourimetric assay)? +++ (10-50 μM=+++)

* * *

# System: H37Rv strain of M. tuberculosis
# PROCEDURE_SUMMARY: Alamar Blue Susceptibility Test (MABA)
# Assay type: cell-based
# APPLIED_CONDITIONS: Mycobacterium tuberculosis; H37Rv strain of M. tuberculosis; Alamar Blue; read-out: MABA (TB growth inhibition, colourimetric assay)
Structures can show the parent of a compound that is named as a salt.
Task for the reader: assign each of the following compounds its reported MIC.

Query: MIC; subject: `c1ccc(C2(Nc3nc(N4CCCCC4)nc4ccccc34)CC2)cc1` 10 to 50 µM

Please look up its MIC: `Clc1ccc(CNc2nc(N3CCCC3)nc3ccccc23)cc1` 10 to 50 µM

Which MIC is reported for this compound? `c1ccc2c(NCc3ccsc3)nc(N3CCCCC3)nc2c1` 10 to 50 µM

MIC for `O=C(C1CCCCC1)N1CCN(c2nc(NCc3ccc(F)cc3)c3ccccc3n2)CC1` ? 10 to 50 µM

// query MIC value for entry `Clc1cccc2nc(N3CCCCC3)nc(NCc3ccccc3)c12` 10 to 50 µM

Value lookup for MIC; key = `c1ccc(CN(Cc2ccccc2)c2nc(N3CCCCC3)nc3ccccc23)cc1` < 10 µM

Quick one: MIC for `CC(C)(C)OC(=O)N1CCN(c2nc(NCc3ccccc3)c3ccccc3n2)CC1` ? 10 to 50 µM

// lookup MIC for `O=[N+]([O-])c1ccc(NCCNc2nc(N3CCOCC3)nc3ccccc23)cc1` 50 to 128 µM

Using the record for `COC[C@H](Cc1ccccc1)Nc1nc(N2CCCCC2)nc2ccccc12` , report its MIC. 10 to 50 µM

# query: MIC of entry `CC(C)(Nc1nc(N2CCCC2)nc2ccccc12)c1ccccc1` 10 to 50 µM

What value of MIC has been reported for the following compound? `c1ccc(CNc2nc(N3CCCC3)nc3ccccc23)cc1` < 10 µM

Need MIC, item FC(F)(F)c1ccc(N2CCN(c3nc(NCc4ccccc4)c4ccccc4n3)CC2)cc1 [Compound 135, hydrochloride] < 10 µM

Could you tell me which MIC is on file for FC(F)(F)c1ccc(CNc2nc(N3CCCCC3)nc3ccccc23)o1 [Compound 160, hydrochloride] ? < 10 µM

Tell me the measured MIC of `COC(=O)c1ccc(CNc2nc(N3CCCCC3)nc3ccccc23)cc1` , please. < 10 µM

# lookup: MIC of `COc1cc2nc(N3CCCCC3)nc(NCc3ccccc3)c2cc1OC` 10 to 50 µM

Name the recorded MIC for `c1ccc2c(CNc3nc(N4CCCCC4)nc4ccccc34)cccc2c1` . < 10 µM

# query: MIC of entry Clc1ccc(CNc2nc(N3CCc4ccccc4C3)nc3ccccc23)cc1 [Compound 106, hydrochloride] < 10 µM

GET /values?readout=MIC&item= `Fc1ccc(CNc2nc(NCc3cc4ccccc4s3)nc3ccccc23)cc1` 10 to 50 µM
